Ref: paper PMC11367390

measured_on: α-Glucosidase from Saccharomyces cerevisiae (Saccharomyces cerevisiae)
Sequence (P53341 whole entry): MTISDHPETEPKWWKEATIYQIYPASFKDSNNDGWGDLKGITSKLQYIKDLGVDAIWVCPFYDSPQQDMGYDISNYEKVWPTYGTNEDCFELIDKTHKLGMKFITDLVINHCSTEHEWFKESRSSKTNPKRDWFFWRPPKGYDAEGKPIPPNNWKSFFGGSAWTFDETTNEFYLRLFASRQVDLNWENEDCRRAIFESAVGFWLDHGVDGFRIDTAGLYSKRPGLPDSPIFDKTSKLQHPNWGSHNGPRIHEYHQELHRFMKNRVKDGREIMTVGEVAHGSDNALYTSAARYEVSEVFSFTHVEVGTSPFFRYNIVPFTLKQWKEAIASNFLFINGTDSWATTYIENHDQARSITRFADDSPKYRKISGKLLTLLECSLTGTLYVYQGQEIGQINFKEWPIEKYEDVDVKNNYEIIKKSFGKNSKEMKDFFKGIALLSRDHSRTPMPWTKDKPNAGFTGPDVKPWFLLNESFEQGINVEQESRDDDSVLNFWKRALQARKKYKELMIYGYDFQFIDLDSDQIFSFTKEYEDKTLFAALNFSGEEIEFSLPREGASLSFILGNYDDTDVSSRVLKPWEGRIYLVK
method_description: In vitro α-glucosidase inhibition study
condition_info: IC50, μM, average value ± standard deviation; p-nitrophenyl α-D-glucoside substrate, pH 6.8, 37 °C
recorded_endpoint: IC50 (µM)
Unit µM implied. Number only.

input: Provide the documented IC50 with α-Glucosidase from Saccharomyces cerevisiae (Saccharomyces cerevisiae) as the system for Cc1cc(=O)oc2c(Cn3cnc4ccccc43)c(O)ccc12 [Compound 10b]
output: 21.1

input: Provide the documented IC50 with α-Glucosidase from Saccharomyces cerevisiae (Saccharomyces cerevisiae) as the system for O=c1c(-c2ccc(OC(F)(F)F)cc2)coc2c(Cn3cnc4ccccc43)c(O)ccc12 [Compound 10h]
output: 9.5

input: Provide the documented IC50 with α-Glucosidase from Saccharomyces cerevisiae (Saccharomyces cerevisiae) as the system for `Cc1cc(=O)oc2c(Cn3ccnc3)c(O)ccc12`
output: 23.6

input: Provide the documented IC50 with α-Glucosidase from Saccharomyces cerevisiae (Saccharomyces cerevisiae) as the system for COc1ccc(-c2coc3c(Cn4cc5ccccc5n4)c(O)ccc3c2=O)cc1 [Compound 14b]
output: 23.9
